Below is a list of entries, each paired with its recorded GI50 value.
System: MDA-MB-435
assayProtocol: NCI tumour cell line growth inhibition, 48 h
Where a name gives a salt, the structure may show the parent alone. Activity calls are given as the source filed them. Cut-off read from the data, not from the text of the source: active = GI50 up to about 1.1 µM and inactive = higher.

- compound: "Clc1nc2n(c1/C=C/c1cccs1)CCS2"
  experimentalResult: "31.1 µM (inactive)"
- compound: "CNCCC=C1c2ccccc2CCc2ccccc21 [NORTRIPTYLINE HYDROCHLORIDE]"
  experimentalResult: "13.5 µM (inactive)"

Recorded GI50 for COc1ccc(Oc2cccc(C3C4C(=O)N(c5ccc(C)c(Cl)c5)C(=O)C4ON3C(C(N)=O)c3ccccc3)c2)cc1 (stereo not drawn) , please?
15.5 µM (inactive)

Recorded GI50 for CCC(=O)Nc1ccc(/N=C/c2cccc(Oc3ccccc3)c2)cc1 , please?
47.3 µM (inactive)

Recorded GI50 for CCOC(=O)c1cc2c(OC)cc(OC)cc2oc1=O , please?
> 100 µM (inactive)

Recorded GI50 for CC1C(=O)C23OC[C@@]1(C)C1(O)CC[C@@H](C)[C@]21CC3=O (stereo partly drawn) , please?
> 100 µM (inactive)

Recorded GI50 for Oc1ccc2ccccc2c1CN(Cc1c(O)ccc2ccccc12)C1CCCCC1 , please?
19.2 µM (inactive)
